target-entity: pooled human IgG (human IgG1,2,3 and 4)
Consider the following proteins; for each one, report its Enzyme Activity Endpoint Assay: Fab′2.
One number for each entry, in ng/µL.

# count of solved cases: 3
protein	assay-value
PRT-323 (protein) MTITSVWTKGVTPPTPEDFRENNEDVLHAPYVANQGWYDITKTFDGKDNLLCGAATAGNMLHWWFDQNKEEIERYLKKHPEKQKIIFNNQEWFDVKAAIDTKDSQTNSKLFNYFRDKAFPNLSARQLGVMPDLVLDMFINGYYLNLPKTQSTDVNRPYQDKDKRGGIFDAVFTRGDQTTLLTARHDLKNKGLNEISDLIKQELTEGKALALSHTYANVRINHVINLWGADFDAEGNLIAIYVTDSDANASIGMKKYAVGVNANGKVAISAKKIEGDNIGAQVLGLFTLSTGQDIWQKLS	130
PRT-292 (protein) MVTSVWTKGVTPPADFTQGEDVFHAPYDANQGWYDITKTFNGKDDLLCGAATAGNMLHWWFDQNKEYIEAYLKKHPEKQKIMFGDQELLDVRKAINTKGSQKNSELFNYFRDKAFPNLSARRLGVMPDLVLDMFINGYYLNVTKTQTTDVNRTYQEKDKRGGIFDAVFTRGDQSKLLTSRHDFKEKGLKEISDLIKQELTEGKALGLSHTYANVRISHVINLWGADFDSDGNLKAIYVTDSDSNASIGMKKYFVGVNSAGKVAISAKEIKEDNIGAQVLGLFTLSTGQDIWNQTN	758
PRT-96 (protein) MANQEIRYSEVTPYTVTSVWTKGVTPPADFTQGEDVFHAPYVANQGWYDITKTFNGKDDLLCGAATAGNMLHWWFDQNKEKIEAYLKKHPDKQKIMFGDQELLDVRKAINTKGDQTNSELFNYFRDKAFPGLSARRIGVMPDLVLDMFINGYYLNVYKTQTTDVNRTYQEKDRRGGIFDAVFTRGDQSKLLTSRHDFKEKNLKEISDLIKKELTEGKALGLSHTYANVRINHVINLWGADFDSEGNLKAIYVTDSDSNASIGMKKYFVGVNSAGKVAISAKEIKEDNIGAQVLGLFTLSTGQDSWNQTN	482

Turning now to a further record.
Quick one: Enzyme Activity Endpoint Assay: Fab′2 of PRT-317 (protein) MTITSVWTKGVTPPTPEDFRENNEDVLHAPYVANQGWYDITKTFDGKDNLLCGAATAGNMLHWWFDQNKEEIERYLKKHPEKQKIIFNNQELFDVKAAIDTKDSQTNSKLFNYFRDKAFPNLSARQLGVMPDLVLDMFINGYYLNLGKTQSTDVNRPYQDKDKRGGIFDAVFTRGDQTTLLTARHDLKNKGLNEISDLIKQELTEGKALALSHTYANVRINHVINLWGADFDAEGNLIAIYVTDSDANASIGMKKYFVGRNANGKVAISAKKIEGDNIGAQVLGLFTLSLGQDIWQKLS ?
798

Origin of measurements: patent US20250027068
